TEST TARGET: Kinesin-like protein KIF11 (Homo sapiens, UniProt P52732)
Sequence (P52732 whole entry): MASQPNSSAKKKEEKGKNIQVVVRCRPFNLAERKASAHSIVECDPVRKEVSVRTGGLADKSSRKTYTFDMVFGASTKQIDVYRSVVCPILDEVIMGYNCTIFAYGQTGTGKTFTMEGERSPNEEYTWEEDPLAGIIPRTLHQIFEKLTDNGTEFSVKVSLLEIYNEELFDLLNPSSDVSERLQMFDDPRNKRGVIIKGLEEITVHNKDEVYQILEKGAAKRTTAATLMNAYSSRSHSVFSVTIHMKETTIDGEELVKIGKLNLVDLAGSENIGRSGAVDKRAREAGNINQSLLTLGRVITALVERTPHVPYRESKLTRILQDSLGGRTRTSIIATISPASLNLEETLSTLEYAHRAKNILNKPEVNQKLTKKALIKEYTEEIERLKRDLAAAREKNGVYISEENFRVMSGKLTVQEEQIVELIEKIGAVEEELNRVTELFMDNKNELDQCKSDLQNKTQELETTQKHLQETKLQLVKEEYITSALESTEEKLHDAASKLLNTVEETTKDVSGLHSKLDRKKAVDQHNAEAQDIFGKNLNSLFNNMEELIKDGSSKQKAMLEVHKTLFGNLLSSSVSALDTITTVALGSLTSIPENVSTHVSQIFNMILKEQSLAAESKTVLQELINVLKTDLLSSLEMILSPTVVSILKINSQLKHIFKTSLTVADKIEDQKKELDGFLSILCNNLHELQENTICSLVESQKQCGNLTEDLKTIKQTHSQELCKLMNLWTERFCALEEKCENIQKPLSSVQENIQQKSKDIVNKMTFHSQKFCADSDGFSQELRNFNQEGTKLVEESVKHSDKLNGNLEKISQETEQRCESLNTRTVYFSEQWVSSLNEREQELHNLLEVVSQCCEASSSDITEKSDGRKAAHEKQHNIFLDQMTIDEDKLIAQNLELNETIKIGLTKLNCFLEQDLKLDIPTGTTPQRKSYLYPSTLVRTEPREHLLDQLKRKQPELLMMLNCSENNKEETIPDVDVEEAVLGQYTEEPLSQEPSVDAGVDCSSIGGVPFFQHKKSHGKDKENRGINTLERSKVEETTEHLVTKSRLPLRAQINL
ASSAY PROTOCOL: Inhibition of untagged human Eg5 microtubule-stimulated ATPase activity
pIC50: −log10 of the molar value.
Please use MET whenever pIC50 is not below 6, and NOT MET whenever it is.

Field: example entries. Status: answers known.
[
  {
    "MOLECULE": "CCCc1ccc(C(SC[C@H](N)C(=O)O)(c2ccccc2)c2ccccc2)cc1",
    "LABEL CLASS": "MET"
  },
  {
    "MOLECULE": "N[C@@H](CSC(c1ccccc1)(c1ccccc1)c1ccc(C(F)(F)F)cc1)C(=O)O",
    "LABEL CLASS": "MET"
  },
  {
    "MOLECULE": "CC(C)c1ccc(C(SC[C@H](N)C(=O)O)(c2ccccc2)c2ccccc2)cc1",
    "LABEL CLASS": "MET"
  },
  {
    "MOLECULE": "Cc1ccc(C(SC[C@H](N)C(=O)O)(c2ccccc2)c2ccccc2)cc1",
    "LABEL CLASS": "MET"
  },
  {
    "MOLECULE": "NC(CSC(c1ccccc1)(c1ccccc1)c1ccc(C(=O)O)cc1)C(=O)O (stereo not given)",
    "LABEL CLASS": "NOT MET"
  },
  {
    "MOLECULE": "CCCCc1ccc(C(SC[C@H](N)C(=O)O)(c2ccccc2)c2ccccc2)cc1",
    "LABEL CLASS": "MET"
  },
  {
    "MOLECULE": "CCC(C)C(SC[C@H](N)C(=O)O)(c1ccccc1)c1ccccc1 (mixture of isomers)",
    "LABEL CLASS": "MET"
  }
]

Here is another molecule to look at.
State whether the measured pIC50 reaches 6, counting equality as reaching it, for N[C@@H](CSC(c1ccccc1)(c1ccccc1)c1cccs1)C(=O)O
NOT MET

----------
ASSAY PROTOCOL: Growth inhibition of dog MDCK2-MDR1 cells overexpressing human P-glycoprotein in presence of P-glycoprotein inhibitor LY335979
Format: functional
CONDITION LABEL: Canis lupus familiaris, MDCK-II
OBSERVABLE: GI50 (nM)
Numbers only here, please. The scale is nM.

Study these solved cases before continuing.
[
  {
    "COMPOUND": "N[C@H](CSC(c1ccccc1)(c1ccccc1)c1ccccc1)C(=O)O",
    "GI50 / nM": 780
  },
  {
    "COMPOUND": "CCCc1ccc(C(SC[C@H](N)C(=O)O)(c2ccccc2)c2ccccc2)cc1",
    "GI50 / nM": 630
  },
  {
    "COMPOUND": "N[C@@H](CSC(c1ccccc1)(c1ccccc1)c1ccc(-c2ccccc2)cc1)C(=O)O",
    "GI50 / nM": 24500
  }
]

Determine from records and report GI50 for COc1ccc(C(SC[C@H](N)C(=O)O)(c2ccccc2)c2ccccc2)cc1
80

Provide GI50 value for the following compound: N[C@@H](CSC(c1ccccc1)(c1ccccc1)c1ccc(Br)cc1)C(=O)O
210

Supply GI50 value. Item: CC(C)(C)c1ccc(C(SC[C@H](N)C(=O)O)(c2ccccc2)c2ccccc2)cc1
3010

Consider the compound N[C@@H](CSC(c1ccccc1)(c1ccccc1)c1ccccc1)C(=O)O [S-TRITYL-L-CYSTEINE] . State its measured GI50.
580

Consider the compound CCc1ccc(C(SC[C@H](N)C(=O)O)(c2ccccc2)c2ccccc2)cc1 and give its recorded GI50.
170

Could you please provide reported GI50 for N[C@@H](CSC(c1ccccc1)(c1ccccc1)c1ccc2ccccc2c1)C(=O)O ? Thanks!
50

Give the measured GI50 for CC[C@]1(O)C[C@H]2CN(CCc3c([nH]c4ccccc34)[C@@](C(=O)OC)(c3cc4c(cc3OC)N(C=O)[C@H]3[C@@](O)(C(=O)OC)[C@H](OC(C)=O)[C@]5(CC)C=CCN6CC[C@]43[C@@H]65)C2)C1 [VINCRISTINE]
340

Return value of GI50 for input N[C@@H](CSC(c1ccccc1)(c1ccccc1)c1ccc(Cl)cc1)C(=O)O , no commentary.
270

Look up and state reported GI50 for N[C@@H](CSC(c1ccccc1)(c1ccccc1)c1ccc(C(F)(F)F)cc1)C(=O)O
270

Taken from ChEMBL document CHEMBL1687930.
